test system: Plasmodium berghei; assay: Antimalarial activity against blood schizonticidal Plasmodium berghei infected in mouse assessed as change in host mean survival time at 320 mg/kg; assay type: functional
reported property: MST (days)
The reply should contain only the number, in days.

                                   compound   target_under_test  reported_property  value_units  measurement
0  CCc1ccnc2c(NC(C)CCCN)cc(OC)cc12 (stereo not drawn)  Plasmodium berghei                MST         days         11.5
1  COc1cc(NC(C)CCCN)c2nccc(CCSc3ccc(Cl)cc3)c2c1 (stereo not drawn)  Plasmodium berghei                MST         days          8.9
2      CCc1ccnc2c(NCCCCCCN(CC)CC)cc(OC)cc12  Plasmodium berghei                MST         days          6.7
3  CCc1ccnc2c(NC(C)CCCNC(C)C)cc(OC)cc12 (stereo not drawn)  Plasmodium berghei                MST         days         10.5
4  CCc1ccnc2c(NCCCCCCN3CCN(CCO)CC3)cc(OC)cc12  Plasmodium berghei                MST         days          4.1
5  C=Cc1ccnc2c(NC(C)CCCN)cc(OC)cc12 (stereo not drawn)  Plasmodium berghei                MST         days          7.7
6              CCc1ccnc2c(NCCCCN)cc(OC)cc12  Plasmodium berghei                MST         days          6.3

Read the next record carefully.
Given the entry COc1ccc(SCCc2ccnc3c(NC(C)CCCN)cc(OC)cc23)cc1 (stereo not drawn) , what MST was observed with Plasmodium berghei?
6.1
